FYI, the data here is from patent US6800656B2.

- Experimental Details: in vitro
- Format: cell-based
- Cond: African green monkey
Recorded Endpoint: CC50

Exam item: Consider the compound shown here: O=[N+]([O-])c1ccc(CNc2ccc3oc4ccccc4c3c2)cc1 What is its recorded CC50?
Marked response: > 100 µM

Exam item: Consider the compound shown here: CCn1c2ccccc2c2cc(NCc3cccc(F)c3C)ccc21 What is its recorded CC50?
Marked response: > 100 µM

Exam item: Consider the compound shown here: COc1ccc(CNc2ccc3oc4ccc(Cl)cc4c3c2)cc1F What is its recorded CC50?
Marked response: > 100 µM

====

- Test system: herpes simplex virus 1 (HSV)
- Experimental Details: microbe, parasite or virus in culture
- Type: cell-based
- Cond: therapeutic index, HSV-1, Vero cells
- Experimental: Vero (African Green Monkey kidney) cells are infected at a multiplicity of infection of 0.01 with the virus, and serial dilutions of the compound in dimethyl sulfoxide (DMSO) are added. The final concentration of DMSO in all wells is 1%. DMSO is added to control wells. The infection is allowed to proceed for 2 days at which time the β-gal activity in cell lysates is measured. Activity in wells containing compound is compared to control wells and percent inhibition determined.
Recorded Endpoint: TI (EC50/TC50)

Exam item: Consider the molecule shown here: CCn1c2ccccc2c2cc(NCc3cccc(F)c3C)ccc21 What is its recorded TI (EC50/TC50)?
Marked response: >313

Exam item: Consider the molecule shown here: O=[N+]([O-])c1ccc(CNc2ccc3oc4ccccc4c3c2)cc1 What is its recorded TI (EC50/TC50)?
Marked response: >200

Exam item: Consider the molecule shown here: c1cnc2c(c1)Oc1cc(NCc3cccc4ccccc34)ccc1S2 What is its recorded TI (EC50/TC50)?
Marked response: >77

Exam item: Consider the molecule shown here: Fc1ccc(CNc2ccc3c(c2)Oc2ccccc2S3)c(F)c1 What is its recorded TI (EC50/TC50)?
Marked response: >385

Exam item: Consider the molecule shown here: FC(F)(F)c1ccc(CNc2ccc3oc4ccccc4c3c2)cc1 What is its recorded TI (EC50/TC50)?
Marked response: >124

Exam item: Consider the molecule shown here: COc1cc(CNc2ccc3oc4ccccc4c3c2)cc(OC)c1 What is its recorded TI (EC50/TC50)?
Marked response: >143

Exam item: Consider the molecule shown here: COc1ccc(CNc2cccc3c2oc2ccccc23)cc1 What is its recorded TI (EC50/TC50)?
Marked response: >118

Exam item: Consider the molecule shown here: COc1ccc(CNc2ccc3oc4ccc(Cl)cc4c3c2)cc1F What is its recorded TI (EC50/TC50)?
Marked response: >250
